These measurements were taken from ChEMBL document CHEMBL5236641.

target: Metabotropic glutamate receptor 2 (Homo sapiens)
Sequence (Q14416 whole entry): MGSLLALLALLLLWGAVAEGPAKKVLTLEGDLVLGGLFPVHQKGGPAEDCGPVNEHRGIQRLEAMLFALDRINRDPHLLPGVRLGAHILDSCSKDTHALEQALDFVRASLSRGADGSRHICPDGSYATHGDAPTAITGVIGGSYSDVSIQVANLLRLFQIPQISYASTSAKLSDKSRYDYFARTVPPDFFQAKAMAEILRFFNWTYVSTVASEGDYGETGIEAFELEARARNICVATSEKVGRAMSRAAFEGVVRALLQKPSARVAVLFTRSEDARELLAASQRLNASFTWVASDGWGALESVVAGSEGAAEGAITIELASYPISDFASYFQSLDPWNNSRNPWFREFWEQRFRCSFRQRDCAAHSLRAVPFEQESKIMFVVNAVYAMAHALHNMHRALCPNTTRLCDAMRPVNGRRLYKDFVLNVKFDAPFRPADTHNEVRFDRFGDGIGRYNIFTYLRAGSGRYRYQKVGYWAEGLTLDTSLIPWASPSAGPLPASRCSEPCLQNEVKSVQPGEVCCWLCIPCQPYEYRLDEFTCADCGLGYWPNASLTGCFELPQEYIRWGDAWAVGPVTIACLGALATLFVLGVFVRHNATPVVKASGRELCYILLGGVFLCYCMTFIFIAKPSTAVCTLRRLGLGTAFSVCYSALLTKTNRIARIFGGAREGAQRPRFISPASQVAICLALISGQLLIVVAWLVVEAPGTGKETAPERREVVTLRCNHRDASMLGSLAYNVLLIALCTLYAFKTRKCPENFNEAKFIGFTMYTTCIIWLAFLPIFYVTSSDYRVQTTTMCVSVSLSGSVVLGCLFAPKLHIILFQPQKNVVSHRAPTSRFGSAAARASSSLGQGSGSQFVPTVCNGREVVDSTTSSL
measurement-description: Positive allosteric modulation of human mGluR2
pEC50: −log10 of the molar value.
quantity-name: pEC50

For this molecule ( COc1cc(F)cc2c(N3CCN4c5c(F)cccc5OC[C@@H]4C3)c(C#N)nnc12 ), measured pEC50 is < 4.52

---

target: UniProtKB O00222
Sequence (O00222 whole entry): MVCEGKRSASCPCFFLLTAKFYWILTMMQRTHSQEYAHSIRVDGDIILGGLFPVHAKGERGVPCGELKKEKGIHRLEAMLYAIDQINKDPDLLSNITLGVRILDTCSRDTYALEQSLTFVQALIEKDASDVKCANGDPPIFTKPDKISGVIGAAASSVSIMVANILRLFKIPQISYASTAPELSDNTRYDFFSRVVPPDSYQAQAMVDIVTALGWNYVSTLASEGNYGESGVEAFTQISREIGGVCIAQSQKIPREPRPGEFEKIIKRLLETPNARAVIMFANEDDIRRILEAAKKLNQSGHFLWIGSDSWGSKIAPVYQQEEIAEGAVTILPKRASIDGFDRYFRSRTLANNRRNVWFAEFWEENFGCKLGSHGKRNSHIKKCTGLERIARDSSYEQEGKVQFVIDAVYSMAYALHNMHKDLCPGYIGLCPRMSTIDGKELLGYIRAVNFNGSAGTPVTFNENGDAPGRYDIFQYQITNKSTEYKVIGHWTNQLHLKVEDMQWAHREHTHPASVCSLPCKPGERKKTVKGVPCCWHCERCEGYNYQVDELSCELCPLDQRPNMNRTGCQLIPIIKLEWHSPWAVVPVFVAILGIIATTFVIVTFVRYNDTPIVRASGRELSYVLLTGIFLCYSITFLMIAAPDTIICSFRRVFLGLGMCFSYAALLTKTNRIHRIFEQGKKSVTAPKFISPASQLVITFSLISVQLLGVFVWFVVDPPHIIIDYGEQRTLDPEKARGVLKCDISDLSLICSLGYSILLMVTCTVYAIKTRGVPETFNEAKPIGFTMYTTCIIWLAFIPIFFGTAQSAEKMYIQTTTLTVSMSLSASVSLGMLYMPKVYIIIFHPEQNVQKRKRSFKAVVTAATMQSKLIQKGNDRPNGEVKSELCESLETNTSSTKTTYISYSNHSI
measurement-description: Positive allosteric modulation of human mGluR8
quantity-name: EC50

Field EC50 (entry COc1cc(F)cc2c(N3CCN4c5c(F)cccc5OC[C@@H]4C3)c(C#N)nnc12 ) reads > 30 µM

---

target: Metabotropic glutamate receptor 3 (Homo sapiens)
Sequence (Q14832 whole entry): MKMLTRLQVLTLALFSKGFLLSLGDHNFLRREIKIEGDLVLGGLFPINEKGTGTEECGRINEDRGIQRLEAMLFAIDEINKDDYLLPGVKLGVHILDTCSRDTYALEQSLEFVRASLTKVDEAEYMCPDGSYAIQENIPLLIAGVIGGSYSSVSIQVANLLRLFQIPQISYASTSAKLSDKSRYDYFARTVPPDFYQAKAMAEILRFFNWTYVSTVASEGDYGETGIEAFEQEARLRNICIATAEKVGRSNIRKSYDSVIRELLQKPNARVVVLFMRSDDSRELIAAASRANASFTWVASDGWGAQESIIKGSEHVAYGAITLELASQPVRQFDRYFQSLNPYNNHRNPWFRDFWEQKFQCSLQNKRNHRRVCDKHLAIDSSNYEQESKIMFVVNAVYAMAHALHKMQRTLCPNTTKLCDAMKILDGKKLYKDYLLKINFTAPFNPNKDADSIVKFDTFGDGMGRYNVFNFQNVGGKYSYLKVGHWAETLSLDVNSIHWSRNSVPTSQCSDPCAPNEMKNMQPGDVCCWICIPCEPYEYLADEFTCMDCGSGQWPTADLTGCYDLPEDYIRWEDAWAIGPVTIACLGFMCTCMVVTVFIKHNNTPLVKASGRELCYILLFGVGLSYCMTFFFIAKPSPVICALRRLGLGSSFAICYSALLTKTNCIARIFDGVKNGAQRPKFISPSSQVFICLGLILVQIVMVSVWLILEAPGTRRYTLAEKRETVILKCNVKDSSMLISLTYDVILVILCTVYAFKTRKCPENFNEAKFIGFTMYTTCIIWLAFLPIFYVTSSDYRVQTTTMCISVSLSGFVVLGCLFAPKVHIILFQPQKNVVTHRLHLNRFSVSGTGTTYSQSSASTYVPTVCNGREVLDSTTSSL
measurement-description: Positive allosteric modulation of mGluR3 (unknown origin)
quantity-name: EC50

EC50 in this record for [2H]C([2H])([2H])Oc1cc(F)cc2c(N3CCN(c4ccccc4F)CC3)c(C#N)cnc12 : > 10 µM
